# protocol.description: APR_HepG2_MitoticArrest_24hr: Apredica 24-hour HepG2 Assay for Mitotic Arrest (AID 2282910)
# reported.conditions: high-content imaging, actives raise or lower the signal
Calls of active or inactive are those of the source. Rule for the calls: active = hit-call score of the fitted dose curve at least 0.9, where 1 is the maximum; inactive = score below 0.9.

>  <chemical.smiles>
COC(=O)c1ccc(CNS(C)(=O)=O)cc1S(=O)(=O)NC(=O)Nc1nc(OC)cc(OC)n1

>  <outcome>
inactive

$$$$
>  <chemical.smiles>
COC(=O)c1ccc(I)cc1S(=O)(=O)NC(=O)Nc1nc(C)nc(OC)n1

>  <outcome>
inactive

$$$$
>  <chemical.smiles>
CCN(Cc1c(F)cccc1Cl)c1c([N+](=O)[O-])cc(C(F)(F)F)cc1[N+](=O)[O-]

>  <outcome>
inactive

$$$$
